B1: library; a variant is named by its letters at N, in order (parent)
chain: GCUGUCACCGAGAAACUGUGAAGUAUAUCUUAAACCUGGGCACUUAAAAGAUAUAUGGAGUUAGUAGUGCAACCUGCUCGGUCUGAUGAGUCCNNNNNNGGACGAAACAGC

- Variants of: B1
- test_protocol: normalized RNA/DNA level with ligand (relative to sTRSVctl = 100) (log10 (% of sTRSVctl)); HEK293T; ligand: cyclic di-GMP (c-di-GMP-II aptamer); ligand concentration (+) RNA-Seq: 1 mM; higher = less ribozyme self-cleavage, higher mRNA level
- conditions: reporter: mCherry (pCS4076), ligand present: yes
normalized RNA/DNA level with ligand (log10) values, listed per item
Form field (numeric): enter value without unit.

UAAGCG = 1.86
GCUAUC = 1.66
AAGAAC = 1.73

The measured normalized RNA/DNA level with ligand (log10) associated with UACCAA reads 1.8

The measured normalized RNA/DNA level with ligand (log10) associated with AUCGAC reads 1.8

The measured normalized RNA/DNA level with ligand (log10) associated with AACUUA reads 1.79
